# assay-summary: protein stability index of a GFP-peptide fusion (GPS, HEK-293T) (PSI 1-6); higher = more stable;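 further: 24-mer peptide tiles fused after GFP, lentivirally expressed, FACS-sorted into six equal bins by GFP/DsRed ratio, decoded by Illumina sequencing, PSI is the read-weighted mean bin number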
# cond: treatment: DMSO; c terminus: a fixed tail appended
readout-name: protein stability index
# answer = number (no unit)

The examples below pair each entry with its known result.
chain	number
QSLLQPKSSSVDSELTSLCQSVLE [SMG5]	3.88
TSLEITILTSQPGKEVVKQLEEGL [M1AP]	2.74
GELQESGLALCPEVQDLLEGCELP [SMG5]	5.17
QVQSLITNVESQLAEIRCDLERQN [KRT34]	3.43
EELSVLEVFEGREDSILGDPKKLL [MAGEA3]	4.38
MVGQKDSVILSVKFSPFGQWWASV [TLE6]	2.95
AQEQLRPQTPEPVEGRKHVDVQTE [RSPH3]	5.41
RAARDYKIQNHGHRVLQRLEQRRQ [FCHSD1]	3.82

Entry GRARATGGDLEEQQHAEGSPEPGT [DNAAF3] — recorded protein stability index = 5.59

get_value(item= QEEAIAQFPYVEFTGRDSITCLTC [TMEM106C] , readout=protein stability index) returns 2.5

The sequence identified as RRDEQDDDDKGDSKETRLTLMEEV [GOLPH3] registered its protein stability index at 5.58

Lab note: measured protein stability index of VDKDQPSILNSCEDPVPGMLFFLP [FBXO34] was 3.32

In plain terms, REEERPLPRRDFQRQVWLLFEYPE [KCNA3] has a documented protein stability index of 2.64
